- assayRemarks: Examination of solubilizing agent: solubility of SUN N8075 (Test example 1)
- Format: physicochemical
- appliedConditions: phosphate-buffered saline with solubilizing agent, 24 °C, pH 6.5, aqueous with cosolvent or surfactant or cyclodextrin, kinetic from dmso stock, β-Cyclodextrin derivative 10%; pH 6.5; read-out: Concentration (solubility of SUN N8075)
propertyName: solubility at 30 min (mg/mL)
Numbers only, in mg/mL.

Give its solubility at 30 min value. Item: Cc1cc(OC[C@@H](O)CN2CCN(c3ccc(Cc4ccc(F)cc4)cc3)CC2)c(C)c(C)c1N [SUN N8075]
4.85

----------
- assayRemarks: Examination of solubilizing agent: solubility of SUN N8075 (Test example 1)
- Format: physicochemical
- appliedConditions: phosphate-buffered saline with solubilizing agent, 24 °C, pH 6.9, aqueous with cosolvent or surfactant or cyclodextrin, kinetic from dmso stock, β-Cyclodextrin derivative 5.0%; pH 6.9; read-out: Concentration (solubility of SUN N8075)
propertyName: solubility at 30 min (µg/mL)
Answers are plain numbers, in µg/mL.

# get_value(readout='solubility at 30 min', item= Cc1cc(OC[C@@H](O)CN2CCN(c3ccc(Cc4ccc(F)cc4)cc3)CC2)c(C)c(C)c1N [SUN N8075] )
1420

----------
- assayRemarks: Examination of solubilizing agent: solubility of SUN N8075 (Test example 1)
- Format: physicochemical
- appliedConditions: phosphate-buffered saline with solubilizing agent, 24 °C, pH 6.8, aqueous with cosolvent or surfactant or cyclodextrin, kinetic from dmso stock, HCO-60 (polyoxyethylene hardened castor oil) 0.1%; pH 6.8; read-out: Concentration (solubility of SUN N8075)
propertyName: solubility at 30 min (µg/mL)
Give bare numbers, in µg/mL.

solubility at 30 min lookup needed for Cc1cc(OC[C@@H](O)CN2CCN(c3ccc(Cc4ccc(F)cc4)cc3)CC2)c(C)c(C)c1N , thanks.
184

Hello, the source for this data is patent US20100004267A1, in case you need it.
